Provenance of the data: patent EP1202975B1

Target: TF-VIIa (Homo sapiens, UniProt P08709)
Construct: 2nM recombinant human factor VIIa; purchased American Diagnostica, Greenwich CT; host or cells: soluble TF made in house in E. coli
Sequence (P08709 213-466 limits assumed): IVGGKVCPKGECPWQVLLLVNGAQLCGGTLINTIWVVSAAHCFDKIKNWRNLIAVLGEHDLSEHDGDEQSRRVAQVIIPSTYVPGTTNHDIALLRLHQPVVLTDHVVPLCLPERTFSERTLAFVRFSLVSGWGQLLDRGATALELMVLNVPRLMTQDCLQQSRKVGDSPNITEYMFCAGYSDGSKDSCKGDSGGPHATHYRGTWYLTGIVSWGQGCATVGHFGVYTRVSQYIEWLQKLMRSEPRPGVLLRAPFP
Sequence (P08709 61-212 limits assumed): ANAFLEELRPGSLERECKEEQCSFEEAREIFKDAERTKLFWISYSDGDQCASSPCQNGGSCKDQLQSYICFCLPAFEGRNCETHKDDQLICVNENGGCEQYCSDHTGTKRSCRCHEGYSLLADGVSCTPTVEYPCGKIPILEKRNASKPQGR
Sequence (P13726 33-251 partner limits assumed): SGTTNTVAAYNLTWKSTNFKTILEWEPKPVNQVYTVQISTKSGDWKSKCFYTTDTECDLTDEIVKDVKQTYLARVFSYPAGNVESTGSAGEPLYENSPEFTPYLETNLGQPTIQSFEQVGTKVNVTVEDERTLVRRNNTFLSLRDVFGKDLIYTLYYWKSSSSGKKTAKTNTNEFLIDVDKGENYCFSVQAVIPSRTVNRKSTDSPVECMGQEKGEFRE
Assay: TF-VIIa Assay
Assay type: biochemical
Conditions: cells given as a plain number (IC50); read-out: IC50 or % Inhibition TF-VIIa (30 µM)
Records here are stratified by IC50; strata: Low: < 0.6 µM; Medium: ≥ 0.6 µM and < 4 µM; High: ≥ 4 µM

compound: N#CCCNc1nc(Cl)c(-c2ccccc2)n(CC(=O)NCc2ccc(C(=N)N)cc2)c1=O [Example 53]
label_class: Low
--
compound: Cc1cccc(-c2cnc(NCCc3ccccc3)c(=O)n2CC(=O)NCc2ccc(C(=N)N)cc2)c1 [compound 84]
label_class: Medium
--
compound: N=C(N)NCCCCNC(=O)Cn1c(-c2ccccc2)cnc(NCCc2ccccc2)c1=O [Example 12]
label_class: High
--
compound: Cc1c(Cl)nc(NCCc2ccccc2)c(=O)n1CC(=O)NCc1ccc(C(=N)N)cc1 [1471-7]
label_class: High
--
compound: Cc1c(N)cccc1-c1c(Cl)nc(NC(C)C)c(=O)n1CC(=O)NCc1ccc(C(=N)N)cc1 [compound 97]
label_class: Low
--
compound: N=C(N)c1ccc(CNC(=O)Cn2c(-c3ccccc3)c(Cl)nc(NCc3cc(F)ccc3F)c2=O)cc1 [1512-36]
label_class: Medium
--
compound: N=C(N)c1ccc(CNC(=O)Cn2c(-c3cccc(Cl)c3)c(Cl)nc(NCc3ccccc3)c2=O)cc1 [Example 23]
label_class: Medium
--
compound: CNc1cccc(-c2c(Cl)nc(NC(C)C)c(=O)n2CC(=O)NCc2ccc(C(=N)N)cc2)c1 [Example 104]
label_class: Medium
--
compound: N=C(N)c1ccc(CNC(=O)Cn2c(-c3cccc(N)c3)c(Cl)nc(NC3CCC3)c2=O)cc1F [Example 40]
label_class: Low
--
compound: N=C(N)CCNc1nc(Cl)c(-c2ccccc2)n(CC(=O)NCc2ccc(C(=N)N)cc2)c1=O [Example 50]
label_class: Low
--
compound: N=C(N)NCCNc1nc(Cl)c(-c2ccccc2)n(CC(=O)NCc2ccc(C(=N)N)cc2)c1=O [Example 48]
label_class: Low
--
compound: N=C(N)c1ccc(CNC(=O)Cn2c(-c3ccccc3)c(Cl)nc(NC3CCC3)c2=O)cc1 [1507-21]
label_class: Low
--
compound: N=C(N)c1ccc(CNC(=O)Cn2c(-c3ccccc3)c(Cl)nc(NC3CCCCCC3)c2=O)cc1 [1512-16]
label_class: High
--
compound: CC(C)CNc1nc(Cl)c(-c2ccccc2)n(CC(=O)NCc2ccc(C(=N)N)cc2)c1=O [1507-32]
label_class: High
--
compound: N=C(N)c1ccc(CNC(=O)Cn2c(-c3ccccc3F)c(Cl)nc(NCCc3ccccc3)c2=O)cc1 [1515-35]
label_class: Medium
--
compound: CCC(CC)Nc1nc(Cl)c(-c2cccc(N)c2)n(CC(=O)NCc2ccc(C(=N)N)cc2)c1=O [1526-11]
label_class: Low
--
compound: CN(C)CCCNc1nc(Cl)c(-c2ccccc2)n(CC(=O)NCc2ccc(C(=N)N)cc2)c1=O [1507-47]
label_class: High
--
compound: CC(C)(C)CCNc1nc(Cl)c(-c2ccccc2)n(CC(=O)NCc2ccc(C(=N)N)cc2)c1=O [1522-18]
label_class: Medium
--
compound: N=C(N)c1ccc(CNC(=O)Cn2c(-c3ccccc3)c(Cl)nc(NCCc3cccc(C(F)(F)F)c3)c2=O)cc1 [1512-41]
label_class: High
--
compound: N=C(N)c1ccc(CNC(=O)Cn2c(-c3ccccc3)cnc(NC(=O)Nc3cccc(N)c3)c2=O)cc1 [Example 107]
label_class: Low
--
compound: CC(C)Nc1nc(Cl)c(-c2cccnc2)n(CC(=O)NCc2ccc(C(=N)N)cc2)c1=O [compound 75]
label_class: Low
--
compound: CN(C)c1cccc(-c2c(Cl)nc(NCCc3ccccc3)c(=O)n2CC(=O)NCc2ccc(C(=N)N)cc2)c1 [Example 103]
label_class: Low
--
compound: N=C(N)NCCCCCNC(=O)Cn1c(-c2ccccc2)cnc(NCCc2ccccc2)c1=O [Example 13]
label_class: High
--
compound: N=C(N)c1ccc(CNC(=O)Cn2c(-c3ccc4ccccc4c3)c(Cl)nc(NCCc3ccccc3)c2=O)cc1 [compound 82]
label_class: High
--
compound: N=C(N)NCCC[C@H](NC(=O)Cn1c(Cc2ccccc2)cnc(NCCc2ccccc2)c1=O)C(=O)c1nccs1 [Example 7]
label_class: Low
--
compound: N=C(N)c1ccc(CNC(=O)Cn2c(Cc3ccccc3)cnc(NCCc3ccccc3)c2=O)cc1 [Example 2]
label_class: High
--
compound: N=C(N)c1ccc(CNC(=O)Cn2c(-c3cccc(F)c3)c(Cl)nc(NCCc3ccccc3)c2=O)cc1 [1515-33]
label_class: Medium
--
compound: CCc1c(Cl)nc(NCCc2ccccc2)c(=O)n1CC(=O)NCc1ccc(C(=N)N)cc1 [1471-63]
label_class: Medium
--
compound: N=C(N)c1ccc(CNC(=O)Cn2c(-c3cccc(Br)c3)c(Cl)nc(NC3CCC3)c2=O)cc1 [1515-22]
label_class: High
